- TGT: Adenosine receptor A1 (Homo sapiens)
- Sequence (P30542 whole entry): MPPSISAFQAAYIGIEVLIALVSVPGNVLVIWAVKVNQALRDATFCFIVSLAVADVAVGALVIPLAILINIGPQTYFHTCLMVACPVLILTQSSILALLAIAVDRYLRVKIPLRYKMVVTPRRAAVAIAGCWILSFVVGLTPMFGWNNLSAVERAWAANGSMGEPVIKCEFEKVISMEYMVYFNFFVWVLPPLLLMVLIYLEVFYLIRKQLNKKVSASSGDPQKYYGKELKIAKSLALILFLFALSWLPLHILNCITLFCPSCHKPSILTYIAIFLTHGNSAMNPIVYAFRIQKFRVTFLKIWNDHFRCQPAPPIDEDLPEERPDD
- METHOD NOTES: Displacement of [3H]CCPA from human adenosine A1 receptor expressed in CHO cells
- Assay type: cell-based
Answer each item with its documented log10 of Ki.
The common logarithm of Ki in µM is what is listed.

Cn1c(=O)c2c(nc3n2CCCN3c2ccc(Cl)cc2)n(C)c1=O: 1.00
C#CCn1c(=O)c2c(nc3n2CCCN3CCc2ccc(OC)cc2)n(C)c1=O: 0.64
CCn1c(=O)c2c(nc3n2CCCN3c2ccc(F)cc2)n(CC)c1=O: 0.82
Cn1c(=O)c2c(nc3n2CCCN3c2ccc(F)cc2)n(C)c1=O: 1.22
C#CCn1c(=O)c2c(nc3n2CCCN3Cc2ccc(OC)cc2)n(C)c1=O: 1.01

Value sought for every listed compound: log10 of Ki.
1. C#CCn1c(=O)c2c(nc3n2CCCN3CCc2cccs2)n(C)c1=O
2. C#CCn1c(=O)c2c(nc3n2CCCN3CC2CCCCC2)n(C)c1=O
3. C#CCn1c(=O)c2c(nc3n2CCCN3C2CCC2)n(C)c1=O
4. C#CCn1c(=O)c2c(nc3n2CCCN3CCc2ccccc2)n(C)c1=O
5. Cn1c(=O)c2c(nc3n2CCCN3Cc2cc(Cl)cc(Cl)c2)n(C)c1=O

Key:
[0.15, 0.27, -0.06, 1.06, 0.23]

Exercise: What does the record list as log10 of Ki for CCn1c(=O)c2c(nc3n2CCCN3CCc2ccccc2OC)n(CC)c1=O ?
Key: 0.59
